target-of-assay: T1, His-tagged human HtrA1 protease domain (human, UniProt Q92743 161-367)
T1 construct: His-tagged protease domain; also called huHtrA1-PD-His; huHtrA1-PD
T1 sequence (Q92743 other isoform, or with tags, fused parts or gaps limits assumed): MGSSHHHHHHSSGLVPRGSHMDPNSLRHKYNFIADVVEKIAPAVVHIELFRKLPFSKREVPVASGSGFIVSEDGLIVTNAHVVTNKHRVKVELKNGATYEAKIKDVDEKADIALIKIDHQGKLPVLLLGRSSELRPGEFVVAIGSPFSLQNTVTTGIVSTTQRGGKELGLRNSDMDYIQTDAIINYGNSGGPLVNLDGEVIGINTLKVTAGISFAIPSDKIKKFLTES
experimental-details: BIACORE SPR, single-cycle kinetics; Fab analyte over captured human HtrA1
Entries and their koff
measured-metric: koff (s⁻¹)

• h15H6.v2 Fab (Fab, V domains shown, Tested as Fab; also called parent; parental Fab) VH: EVQLVQSGAEVKKPGASVKVSCKASGYTFTDSEMHWVRQAPGQGLEWIGGVDPETDGAAYNQKFKGRATITRDTSTSTAYLELSSLRSEDTAVYYCTRGYDYDYALDYWGQGTLVTVSS VL: DIQMTQSPSSLSASVGDRVTITCRASSSVNFIHWYQQKPGKAPKPLISATSNLASGVPSRFSGSGSGTDFTLTISSLQPEDFATYYCQQWSSNPWTFGQGTKVEIK = 0.00014
• AG (Fab, V domains shown, single member of the group m42; also called h15H6.v2 HC-D55A HC-G56 Fab) VH: EVQLVQSGAEVKKPGASVKVSCKASGYTFTDSEMHWVRQAPGQGLEWIGGVDPETAGAAYNQKFKGRATITRDTSTSTAYLELSSLRSEDTAVYYCTRGYDYDYALDYWGQGTLVTVSS VL: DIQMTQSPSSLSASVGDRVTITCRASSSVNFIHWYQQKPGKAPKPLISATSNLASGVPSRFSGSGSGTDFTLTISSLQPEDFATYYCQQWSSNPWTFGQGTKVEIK = 0.00035
• DA (Fab, V domains shown, single member of the group m42; also called h15H6.v2 HC-D55 HC-G56A Fab) VH: EVQLVQSGAEVKKPGASVKVSCKASGYTFTDSEMHWVRQAPGQGLEWIGGVDPETDAAAYNQKFKGRATITRDTSTSTAYLELSSLRSEDTAVYYCTRGYDYDYALDYWGQGTLVTVSS VL: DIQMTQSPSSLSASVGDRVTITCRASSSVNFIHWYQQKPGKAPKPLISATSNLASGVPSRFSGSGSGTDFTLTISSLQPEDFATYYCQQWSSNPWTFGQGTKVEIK = 0.00027
• SG (Fab, V domains shown, single member of the group m42; also called h15H6.v2 HC-D55S HC-G56 Fab) VH: EVQLVQSGAEVKKPGASVKVSCKASGYTFTDSEMHWVRQAPGQGLEWIGGVDPETSGAAYNQKFKGRATITRDTSTSTAYLELSSLRSEDTAVYYCTRGYDYDYALDYWGQGTLVTVSS VL: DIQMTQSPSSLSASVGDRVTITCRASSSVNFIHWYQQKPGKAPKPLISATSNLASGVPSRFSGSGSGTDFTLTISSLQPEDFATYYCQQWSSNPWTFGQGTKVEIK = 0.00032
• h15H6.v2 HC-D55E HC-G56 Fab (Fab, V domains shown, Produced as Fab; also called EG) VH: EVQLVQSGAEVKKPGASVKVSCKASGYTFTDSEMHWVRQAPGQGLEWIGGVDPETEGAAYNQKFKGRATITRDTSTSTAYLELSSLRSEDTAVYYCTRGYDYDYALDYWGQGTLVTVSS VL: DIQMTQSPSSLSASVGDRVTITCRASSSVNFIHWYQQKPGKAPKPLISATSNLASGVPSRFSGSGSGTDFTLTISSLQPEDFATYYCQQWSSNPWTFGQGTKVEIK = 0.00021

The reported measurements were obtained from patent US20170145113A1.
